target: Methionine aminopeptidase 2 (Homo sapiens) (UniProt P50579); experiment: Inhibition of human MetAP2 assessed as remaining enzyme activity after 8 hrs; parameters: concentration or dose not given beside the values
Sequence (P50579 2-478 limits assumed): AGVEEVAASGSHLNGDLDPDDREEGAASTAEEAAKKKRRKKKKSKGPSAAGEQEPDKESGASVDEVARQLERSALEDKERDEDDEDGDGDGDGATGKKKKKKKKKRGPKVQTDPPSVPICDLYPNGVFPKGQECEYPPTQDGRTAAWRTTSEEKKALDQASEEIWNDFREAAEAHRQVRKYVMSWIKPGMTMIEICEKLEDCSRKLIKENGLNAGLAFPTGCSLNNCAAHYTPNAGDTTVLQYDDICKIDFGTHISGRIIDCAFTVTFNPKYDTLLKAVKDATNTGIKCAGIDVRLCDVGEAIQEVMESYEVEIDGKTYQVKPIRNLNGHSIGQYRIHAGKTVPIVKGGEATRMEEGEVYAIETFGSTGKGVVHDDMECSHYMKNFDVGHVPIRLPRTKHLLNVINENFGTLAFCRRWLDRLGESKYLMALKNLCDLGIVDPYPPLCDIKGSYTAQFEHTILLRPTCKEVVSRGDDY
Can you tell me Activity for the items I'm about to list?
Please respond with the number in % and leave the unit unwritten.

Looking up CO[C@@H]1[C@H](OC(=O)N[C@@H](C(N)=O)C(C)C)CC[C@]2(CO2)[C@H]1[C@@]1(C)O[C@@H]1C[C@@H]1OC1(C)C , I found its Activity recorded as 58

Looking up CO[C@@H]1[C@H](OC(=O)N[C@@H](C(N)=O)C(C)C)CC[C@]2(CO2)[C@H]1[C@@]1(C)O[C@@H]1CCC(C)(C)O , I found its Activity recorded as 90

Looking up CO[C@@H]1[C@H](OC(=O)N[C@@H](C(N)=O)C(C)(C)O)CC[C@]2(CO2)[C@H]1[C@@]1(C)O[C@@H]1C[C@H]1OC1(C)C , I found its Activity recorded as 6

Looking up CO[C@@H]1[C@H](OC(=O)N[C@@H](C(N)=O)C(C)C)CC[C@]2(CO2)[C@H]1[C@@]1(C)O[C@@H]1CC=C(C)C , I found its Activity recorded as 2.8

Looking up CO[C@@H]1[C@H](OC(=O)N[C@@H](C(N)=O)C(C)C)CC[C@]2(CO2)[C@H]1[C@@]1(C)O[C@@H]1C[C@H]1OC1(C)C , I found its Activity recorded as 10

Looking up CO[C@@H]1[C@H](OC(=O)N[C@@H](C(N)=O)C(C)(C)O)CC[C@]2(CO2)[C@H]1[C@@]1(C)O[C@@H]1C[C@@H]1OC1(C)C , I found its Activity recorded as 39

Looking up CO[C@@H]1[C@H](OC(=O)N[C@@H](C(N)=O)C(C)(C)O)CC[C@]2(CO2)[C@H]1[C@@]1(C)O[C@@H]1CC=C(C)C , I found its Activity recorded as 1

Looking up CO[C@@H]1[C@H](OC(=O)N[C@@H](C(N)=O)C(C)C)CC[C@]2(CO2)[C@H]1[C@@]1(C)O[C@@H]1C/C=C(\C)CO , I found its Activity recorded as 9
